These data points were gathered from patent US7776918B2.

# assay-info: Cytotoxicity test (Cell Counting Kit-8)
# Format: cell-based
# experimental-conditions: human, Firefly luciferase HCV replicon cells (3-1); Cell Counting Kit-8, absorbance 450 nm, after 3 days culture with compound
recorded-metric: CC50 at 3 days

Look over these answered cases.
molecule: CCCCCCCC(=O)CCCCCC/C=C/[C@H](C(=O)N[C@@H](Cc1ccc(OCC=C(C)C)cc1)C(=O)OC)[C@@](O)(CC(=O)OC)C(=O)O
observed-value: > 1000 nM

molecule: CCCCCCC(O)C(=O)CCCCCC/C=C/[C@H](C(=O)N[C@@H](Cc1ccc(OCC=C(C)C)cc1)C(=O)O)[C@@](O)(CC(=O)O)C(=O)O (stereo partly shown)
observed-value: > 1000 nM

molecule: CCCCCCCC(=O)CCCCCC/C=C/[C@H](C(=O)N[C@@H](Cc1ccc(OCCC)cc1)C(=O)O)[C@@](O)(CC(=O)O)C(=O)O
observed-value: > 1000 nM

Now turn to the next molecule.
In: What value of CC50 at 3 days has been recorded for this entry: "CCCCCCCC(=O)CCCCCCCC[C@H](C(=O)N[C@@H](Cc1ccc(O)cc1)C(=O)O)[C@@](O)(CC(=O)O)C(=O)O"
Out: > 50000 nM

----------
# assay-info: Cytotoxicity test (Cell Counting Kit-8)
# Format: cell-based
# experimental-conditions: human, Firefly luciferase HCV replicon cells (3-1); Cell Counting Kit-8, absorbance 450 nm, after 3 days culture with compound
recorded-metric: CC50 at 3 days

compound: CCCCCCCC(=O)CCCCCC/C=C/[C@H](C(=O)N[C@@H](Cc1ccc(OCC=C(C)C)cc1)C(=O)O)[C@@](O)(CC(=O)OC)C(=O)O
CC50 at 3 days: > 1000 nM

compound: CCCCCCCC(CCCCCC/C=C/[C@H](C(=O)N[C@@H](Cc1ccc(OCC=C(C)C)cc1)C(=O)O)[C@@](O)(CC(=O)O)C(=O)O)=NOC
CC50 at 3 days: > 50000 nM

Now turn to the next compound.
In: What value of CC50 at 3 days has been recorded for this entry: CCCCCCC(O)C(=O)CCCCCC/C=C/[C@H](C(=O)N[C@@H](Cc1ccc(O)cc1)C(=O)O)[C@@](O)(CC(=O)O)C(=O)O (stereo partly drawn)
Out: > 1000 nM
